Assignment: determine reported Enzyme Activity Endpoint Assay: scIgG for the given proteins.
molecular target: pooled human IgG (human IgG1, 2, 3 and 4)
One number for each entry, in ng/µL.

PROTEIN	MEASURED QUANTITY	UNIT OF MEASUREMENT	OBS VALUE
PRT-580 (protein) MANQEIRYSEETPKTITSVWTKGVTPPTDFIKNEDVFHAPYVANQGWYDITKTFNGKDDLLCGAATAGNMLHWWFDQNKEEIERYLKKHPEKQKINFNGEQMFDVKEAIDTKDSQTNSKLFEYFKDKAFPYLSTKHLGVFPDHVIDMFINGYRLSLTNHGPTPVKRGTKDPRGGIFDAVFTRGDQSKLLTSRHDFKEKTLKEISDLIKQELQEGKALGLSHTYANVRINHVINLWGADFDSEGNLEAIYVTDSDSNASIGMKKYYVGVNSAGKVAISAKEIEDDNIGAQVLGLFTLSTGKDIWEQTNLEHHHHHH	Enzyme Activity Endpoint Assay: scIgG	ng/µL	0

Challenge: Reported Enzyme Activity Endpoint Assay: scIgG, protein PRT-561 (protein) MANQEIRYSEETPSTITSVWTKGVTPPTQFIYNEDVFHAPYIANQGWYDITKTFNGKDDLLCGAATAGNMLHWWFDQNKEQIENYLKKHPEKQKINFNGEQMFDVKEAIDTKDSQTDSKLFNYFKDKAFPYLSTKHLGVFPDHVIDMFINGYRLSLTNHGPTPVKRQTKDPRGGIFDAVFTRGDQSKLLTSRHDFKEKTLNEISDLIKQELTEGKALGLSHTYANVRINHVINLWGADFDAEGNLEAIYVTDSDSNASIGMKKYYVGVNSAGKVAISAKEIEGDNIGAQVLGLFTLSTGQDIWQQTNLEHHHHHH : ____
Response given: 0

Values compiled from patent US20250027068.
